# ASSAY_TARGET: Polyunsaturated fatty acid 5-lipoxygenase (Homo sapiens, UniProt P09917)
# Sequence (P09917 whole entry): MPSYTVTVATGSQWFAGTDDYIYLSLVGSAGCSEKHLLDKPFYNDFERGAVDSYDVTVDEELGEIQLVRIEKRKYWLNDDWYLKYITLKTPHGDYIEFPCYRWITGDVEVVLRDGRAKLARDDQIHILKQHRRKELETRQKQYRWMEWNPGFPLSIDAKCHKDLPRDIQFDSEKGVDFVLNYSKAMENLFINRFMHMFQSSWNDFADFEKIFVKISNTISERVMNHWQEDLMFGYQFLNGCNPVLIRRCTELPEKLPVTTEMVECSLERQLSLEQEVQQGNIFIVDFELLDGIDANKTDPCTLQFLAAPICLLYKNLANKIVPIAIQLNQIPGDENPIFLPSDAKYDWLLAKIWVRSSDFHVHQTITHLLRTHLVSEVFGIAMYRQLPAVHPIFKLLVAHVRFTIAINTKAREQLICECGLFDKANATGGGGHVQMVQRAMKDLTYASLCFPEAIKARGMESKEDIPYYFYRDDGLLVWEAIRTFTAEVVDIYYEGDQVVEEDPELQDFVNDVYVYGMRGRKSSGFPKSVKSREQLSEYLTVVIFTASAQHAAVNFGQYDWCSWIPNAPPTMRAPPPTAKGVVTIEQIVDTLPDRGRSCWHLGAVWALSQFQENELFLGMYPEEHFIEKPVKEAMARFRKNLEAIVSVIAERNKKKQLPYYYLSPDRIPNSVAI
# ASSAY: Inhibition of 5-lipoxygenase in A23187-stimulated human neutrophils assessed as inhibition of enzyme product formation by RP-HPLC analysis
# RUN_PARAMETERS: read-out: IC50
Please use MET for IC50 under 4000 nM and NOT MET for everything else, ties included.

Threshold test, IC50 < 4000 nM: O=C(Cc1cn(-c2ccccc2)nc1-c1ccc(Cl)cc1)NS(=O)(=O)c1ccccc1
NOT MET

For this compound, is IC50 lower than 4000 nM? Cc1ccc(S(=O)(=O)NC(=O)Cc2c(C)n(Cc3ccc(Cl)cc3)c3ccc(C#Cc4ccccc4)cc23)cc1
MET

Lab note: confirm whether the reported IC50 for this compound is below 4000 nM, equality not counting. compound: COc1ccc2c(c1)c(CC(=O)NS(=O)(=O)c1ccc(C)cc1)c(C)n2C(=O)c1ccc(Cl)cc1
MET

Given O=C(Cc1cn(-c2ccccc2)nc1-c1ccc(C#Cc2ccccc2)cc1)NS(=O)(=O)c1ccc(Cl)cc1 , is recorded IC50 strictly lower than 4000 nM?
MET

# check: IC50 < 4000 nM for O=C(O)Cc1cn(-c2ccccc2)nc1-c1ccc(C#Cc2ccc(Cl)cc2)cc1
MET

Dear colleague, could you confirm whether IC50 of Cc1c(CC(=O)O)c2cc(C#Cc3ccccc3)ccc2n1Cc1ccc(Cl)cc1 falls below 4000 nM? Thanks.
MET

Lab log: compare recorded IC50 with 4000 nM; is it strictly lower for O=C(O)Cc1cn(-c2ccccc2)nc1-c1ccc(C#Cc2ccccc2)cc1 ?
NOT MET

---

# ASSAY_TARGET: Polyunsaturated fatty acid 5-lipoxygenase (Homo sapiens) (UniProt P09917)
# ASSAY: Inhibition of 5-lipoxygenase in A23187-stimulated human neutrophils assessed as remaining activity measuring enzyme product formation at 10 uM by RP-HPLC analysis relative to vehicle-treated control
VALUE_KIND: Activity (%)
Supply the numeric figure in %, leaving out any unit text.

Record excerpt, results attached:
>  <MOLECULE>
CC(C(=O)NS(C)(=O)=O)c1cccc(C(=O)c2ccccc2)c1 (stereo unspecified)

>  <ASSAY_TARGET>
Polyunsaturated fatty acid 5-lipoxygenase (Homo sapiens) (UniProt P09917)

>  <VALUE_KIND>
Activity

>  <REPORTED>
90.7

$$$$
>  <MOLECULE>
CC(C)Cc1ccc(C(C)C(=O)NS(C)(=O)=O)cc1 (stereo unspecified)

>  <ASSAY_TARGET>
Polyunsaturated fatty acid 5-lipoxygenase (Homo sapiens) (UniProt P09917)

>  <VALUE_KIND>
Activity

>  <REPORTED>
91.2

$$$$
>  <MOLECULE>
O=C(O)Cc1cn(-c2ccccc2)nc1-c1ccc(Cl)cc1

>  <ASSAY_TARGET>
Polyunsaturated fatty acid 5-lipoxygenase (Homo sapiens) (UniProt P09917)

>  <VALUE_KIND>
Activity

>  <REPORTED>
59.7

$$$$
>  <MOLECULE>
Cc1ccc(S(=O)(=O)NC(=O)C(C)c2cccc(C(=O)c3ccccc3)c2)cc1 (stereo unspecified)

>  <ASSAY_TARGET>
Polyunsaturated fatty acid 5-lipoxygenase (Homo sapiens) (UniProt P09917)

>  <VALUE_KIND>
Activity

>  <REPORTED>
78.9

$$$$
>  <MOLECULE>
Cc1ccc(S(=O)(=O)NC(=O)C(C)c2ccc(CC(C)C)cc2)cc1 (stereo unspecified)

>  <ASSAY_TARGET>
Polyunsaturated fatty acid 5-lipoxygenase (Homo sapiens) (UniProt P09917)

>  <VALUE_KIND>
Activity

>  <REPORTED>
67.7

$$$$

get_value(item= CS(=O)(=O)NC(=O)Cc1cn(-c2ccccc2)nc1-c1ccc(Cl)cc1 , readout=Activity) returns 72.1
